Source listed as BigSolDB 2.1.

- Run Parameters: in water, 308.15 K
Assay Metric: solubility (mole fraction)
Format: numeric value only, no unit, no commentary.

Exam item: Name the recorded solubility (mole fraction) for `CC(=O)Nc1ccc(O)cc1` .
Marked response: 0.0023

###

- Run Parameters: in transcutol, 308.15 K
Assay Metric: solubility (mole fraction)
Format: numeric value only, no unit, no commentary.

Exam item: Name the recorded solubility (mole fraction) for `CC(=O)Nc1ccc(O)cc1` .
Marked response: 0.126

###

- Run Parameters: in transcutol, 298.15 K
Assay Metric: solubility (mole fraction)
Format: numeric value only, no unit, no commentary.

Exam item: Name the recorded solubility (mole fraction) for `CC(=O)Nc1ccc(O)cc1` .
Marked response: 0.111

###

- Run Parameters: in water, 318.15 K
Assay Metric: solubility (mole fraction)
Format: numeric value only, no unit, no commentary.

Exam item: Name the recorded solubility (mole fraction) for `CC(=O)Nc1ccc(O)cc1` .
Marked response: 0.0033

###

- Run Parameters: in transcutol, 318.15 K
Assay Metric: solubility (mole fraction)
Format: numeric value only, no unit, no commentary.

Exam item: Name the recorded solubility (mole fraction) for `CC(=O)Nc1ccc(O)cc1` .
Marked response: 0.144

###

- Run Parameters: in transcutol, 333.15 K
Assay Metric: solubility (mole fraction)

Exam item: Name the recorded solubility (mole fraction) for `CC(=O)Nc1ccc(O)cc1` .
Marked response: 0.178

###

- Run Parameters: in transcutol, 328.15 K
Assay Metric: solubility (mole fraction)

Exam item: Name the recorded solubility (mole fraction) for `CC(=O)Nc1ccc(O)cc1` .
Marked response: 0.166

###

- Run Parameters: in water, 313.15 K
Assay Metric: solubility (mole fraction)
Format: numeric value only, no unit, no commentary.

Exam item: Name the recorded solubility (mole fraction) for `CC(=O)Nc1ccc(O)cc1` .
Marked response: 0.0027

###

- Run Parameters: in water, 333.15 K
Assay Metric: solubility (mole fraction)
Format: numeric value only, no unit, no commentary.

Exam item: Name the recorded solubility (mole fraction) for `CC(=O)Nc1ccc(O)cc1` .
Marked response: 0.0055

###

- Run Parameters: in water, 298.15 K
Assay Metric: solubility (mole fraction)
Format: numeric value only, no unit, no commentary.

Exam item: Name the recorded solubility (mole fraction) for `CC(=O)Nc1ccc(O)cc1` .
Marked response: 0.0016

###

- Run Parameters: in water, 323.15 K
Assay Metric: solubility (mole fraction)
Format: numeric value only, no unit, no commentary.

Exam item: Name the recorded solubility (mole fraction) for `CC(=O)Nc1ccc(O)cc1` .
Marked response: 0.004

###

- Run Parameters: in water, 303.15 K
Assay Metric: solubility (mole fraction)
Format: numeric value only, no unit, no commentary.

Exam item: Name the recorded solubility (mole fraction) for `CC(=O)Nc1ccc(O)cc1` .
Marked response: 0.0019

###

- Run Parameters: in transcutol, 313.15 K
Assay Metric: solubility (mole fraction)
Format: numeric value only, no unit, no commentary.

Exam item: Name the recorded solubility (mole fraction) for `CC(=O)Nc1ccc(O)cc1` .
Marked response: 0.134
